assay: Tmax in C57/BL6 mouse at 25 mg/kg, po bid for 5 days; assay type: ADME, organism-based; set-up: dose 25 mg/kg, route oral; settings: in vivo
measurement-name: Tmax

Respond only with Tmax recorded for COc1ccc(N2Cc3cnc(Nc4ccccc4)nc3N([C@@H]3CC[C@@H](O)C3)C2=O)cc1 (racemic)
30 min

* * *

test: AUC in C57/BL6 mouse at 25 mg/kg, po bid for 5 days; format: ADME, organism-based; design: dose 25 mg/kg, route oral; details: plasma
measurement-name: AUC at 120 h
Record the result as number plus unit.

Respond only with AUC at 120 h recorded for COc1ccc(N2Cc3cnc(Nc4ccccc4)nc3N([C@@H]3CC[C@@H](O)C3)C2=O)cc1 (racemic)
30000 ng·h/mL
